polymerase ribozyme fitness (log ratio) listing for selected variants.
B1: TPR 5TU (parent)
chain: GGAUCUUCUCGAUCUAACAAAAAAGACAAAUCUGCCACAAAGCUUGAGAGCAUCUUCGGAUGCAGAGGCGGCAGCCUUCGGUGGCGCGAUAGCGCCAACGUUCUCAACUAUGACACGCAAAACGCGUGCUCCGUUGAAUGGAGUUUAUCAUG

variants of: B1; experiment: polymerase ribozyme fitness, log enrichment relative to wild type (log ratio); higher = more active; in vitro selection for triplet polymerase activity
Variants at the floor of the assay were thinned out.
Please give the numeric answer without any surrounding text.

Consider the following illustrative entries.
| variant_notation | polymerase ribozyme fitness (log ratio) |
| --- | --- |
| C36U G92C | -1.37 |
| C38G C57A A115C U144G | -1.02 |
| A21U A49G A98G | -0.555 |
| C76A G86C C116G C123A | -2.66 |
| G50U U55A G126U | -0.316 |
| G62U A106C U146G C149U | -3.91 |
| G58A G86A | -1.63 |
| A17G C108U | -3.09 |
| A49U C93A | -3.3 |
| G58C G94A | -0.64 |

[Q] polymerase ribozyme fitness (log ratio) lookup needed for G68A A106C , thanks.
[A] -4.13

[Q] GET /values?readout=polymerase ribozyme fitness (log ratio)&item= G128U
[A] -2.53
